assaySystem: Protein kinase C zeta type (Homo sapiens, UniProt Q05513)
Sequence (Q05513 whole entry): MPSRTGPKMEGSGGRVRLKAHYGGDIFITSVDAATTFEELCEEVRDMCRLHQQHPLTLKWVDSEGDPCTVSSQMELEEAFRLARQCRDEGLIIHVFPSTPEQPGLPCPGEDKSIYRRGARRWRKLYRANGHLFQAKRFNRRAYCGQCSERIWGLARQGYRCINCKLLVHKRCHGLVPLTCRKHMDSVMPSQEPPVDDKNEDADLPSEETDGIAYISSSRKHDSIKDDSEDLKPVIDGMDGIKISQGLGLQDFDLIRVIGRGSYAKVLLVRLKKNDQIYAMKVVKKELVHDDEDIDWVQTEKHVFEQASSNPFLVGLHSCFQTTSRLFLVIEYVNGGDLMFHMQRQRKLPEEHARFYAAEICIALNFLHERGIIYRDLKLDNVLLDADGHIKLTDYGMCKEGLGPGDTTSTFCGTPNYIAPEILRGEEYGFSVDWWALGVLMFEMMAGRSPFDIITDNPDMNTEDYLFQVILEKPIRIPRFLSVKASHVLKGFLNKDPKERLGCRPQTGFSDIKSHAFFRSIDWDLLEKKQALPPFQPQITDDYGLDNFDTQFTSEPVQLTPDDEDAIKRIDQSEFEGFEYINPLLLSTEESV
measurementProtocol: Inhibition of PKCzeta in human U937 cells assessed as inhibition of TNF-alpha-induced NF-kB activation by luciferase reporter gene assay
Type: cell-based, U-937

{"compound": "CC(C)(C)c1ccc(C(CC(=O)O)Cc2nc3ccc(I)cc3[nH]2)cc1 (racemic)", "assaySystem": "Protein kinase C zeta type (Homo sapiens, UniProt Q05513)", "IC50 (µM)": 13}
